- Test system: LOX IMVI
- ASSAY PROTOCOL: NCI tumour cell line growth inhibition, 48 h
Calls of active or inactive are those of the source. Cut-off read from the data, not from the text of the source: active = GI50 up to about 1.1 µM and inactive = higher.
Use one of these outcomes when replying: y for active, n for inactive

INSERT INTO results (compound, study_target, label_class) VALUES
  ('O=S(=O)(O)SC/C=C\CSS(=O)(=O)O', 'LOX IMVI', 'n');

For C=CCC(NCc1ccccc1)[C@H](OCc1ccccc1)[C@@H]1COC(C)(C)O1 (stereo partly specified) , which call appears in the assay record?
n

For CCOC(=O)Nc1cc2c(c(N)n1)N=C(c1ccc(OC)cc1)CN2 , which call appears in the assay record?
y

For OC1(c2ccccc2)CC2CCC(C1)N2CCCC1(c2ccc(F)cc2)OCCO1 (stereo unspecified) , which call appears in the assay record?
n

For CC1CCc2sc3nc(S)n(-c4ccccc4)c(=O)c3c2C1 (stereo unspecified) , which call appears in the assay record?
n

For Cc1cc(=O)c2ccccc2n1CCCCCCCCCCn1c(C)cc(=O)c2ccccc21 , which call appears in the assay record?
n

For Nc1nc(=O)[nH]c2c1cnn2COCCO , which call appears in the assay record?
n

For Cc1ccc(S(=O)(=O)NC2=NS(=O)(=O)c3cc(C)c(Cl)cc3S2)cc1 , which call appears in the assay record?
n

For O=[N+]([O-])c1ccc(CSc2c3ccccc3nc3ccccc23)cc1 , which call appears in the assay record?
n

For Cc1ccc(NC(=O)CC2SC(=N)NC2=O)cc1C (stereo unspecified) , which call appears in the assay record?
n

For CC/C(=N/O)c1ccc(Br)s1 , which call appears in the assay record?
n

----------
- Test system: U-251
- ASSAY PROTOCOL: NCI tumour cell line growth inhibition, 48 h
Calls of active or inactive are those of the source. Rule as the data show it: active = GI50 up to about 1.1 µM and inactive = higher.
ATTRIBUTE MEASURED: GI50

INSERT INTO results (compound_string, attribute_measured, test_value) VALUES
  ('COC(=O)c1cn(CCCC(=O)O)nn1', 'GI50', '> 100 µM (inactive)'),
  ('CN1CC[C@]2(c3cccc(O)c3)CC(=O)/C(=C/c3ccccc3)[C@@H]1C2.[O-][Cl+3]([O-])([O-])O', 'GI50', '2.54 µM (inactive)'),
  ('COc1ccc(/C=c2/sc3n(c2=O)NC2(CCCCC2)NN=3)cc1', 'GI50', '> 10 µM (inactive)'),
  ('CCCCCCCCCCCCCCCCOc1ccc(/C=C/C2=[N+](CCCl)CCO2)cc1', 'GI50', '32.9 µM (inactive)');

Next up:
Item C[N+](C)(CCCCCC[N+](C)(C)CCCN1C(=O)c2cccc3cccc(c23)C1=O)CCCN1C(=O)c2cccc3cccc(c23)C1=O with U-251 - GI50?
> 100 µM (inactive)

----------
- Test system: HOP-62
- ASSAY PROTOCOL: NCI tumour cell line growth inhibition, 48 h
The source made the active and inactive calls. No stated cut-off is given here; in the data, active = GI50 up to about 1.1 µM and inactive = higher.
Use one of these outcomes when replying: active, inactive

These solved cases illustrate the format of a correct answer.
INSERT INTO assay_data (compound, label_class) VALUES
  ('CCOC(=O)C1N(S(=O)(=O)c2ccc(C)cc2)CCC12c1ccccc1N(C(C)=O)C2C(/C=C/C(=O)OC)=C/C(=O)OC (centres undefined)', 'inactive'),
  ('CN1C(=O)C23CC4=CC=CC(O)C4N2C(=O)C1(CO)SS3 (centres undefined)', 'active'),
  ('CCOC(=O)c1c(-c2ccccc2)[nH]c2ccc(Cl)cc2c1=O', 'inactive'),
  ('CSC(SC)=C(C(=O)c1ccc(Cl)cc1)n1c(=O)sc2cc(Br)ccc21', 'inactive'),
  ('CN1CC[C@]2(c3cccc(O)c3)CC(=O)/C(=C/c3ccccc3)[C@@H]1C2.[O-][Cl+3]([O-])([O-])O', 'inactive');

For NCCP(=O)(O)O , which call appears in the assay record?
inactive

For CCOC(=O)c1oc2ccc([N+](=O)[O-])c3c2c1CCC3 , which call appears in the assay record?
inactive

For CC(=O)OC1COC(N2C(=O)C(=O)c3cc(Br)ccc32)C(OC(C)=O)C1OC(C)=O (centres undefined) , which call appears in the assay record?
inactive

For COCC(O)Cn1ccnc1[N+](=O)[O-] (centres undefined) [MISONIDAZOLE] , which call appears in the assay record?
inactive

For N#CC(C#N)=c1[nH]c2cccc3c2-c2c(cccc2c3=C(C#N)C#N)[nH]1 , which call appears in the assay record?
inactive

For COC(=O)c1cn(CCCC(=O)O)nn1 , which call appears in the assay record?
inactive

For OC1(c2ccccc2)CC2CCC(C1)N2CCCC1(c2ccc(F)cc2)OCCO1 (centres undefined) , which call appears in the assay record?
inactive

For COc1ccc2[nH]c3c(c2c1)[C@H](c1ccccc1)C[C@@H]1C(=O)N(c2ccccc2)C(=O)[C@H]31 , which call appears in the assay record?
inactive

For Oc1ccc(Cl)cc1Cc1cc(Cl)cc(Cc2cc(Cl)ccc2O)c1O , which call appears in the assay record?
inactive

For O=C1CC(c2ccc(Cl)cc2)=Nc2ccccc2N1 , which call appears in the assay record?
inactive

For c1ccc(-n2nc3ccc4nonc4c3n2)cc1 , which call appears in the assay record?
inactive

For NC(=O)c1ccc(Cl)c([N+](=O)[O-])c1 , which call appears in the assay record?
inactive

For COC(=O)/C(=N\NC(N)=O)C(C(=O)C(=O)Nc1ccccc1OC)c1nc2ccc([N+](=O)[O-])cc2nc1O (centres undefined) , which call appears in the assay record?
inactive

For Cc1cc(O)nc(NN2C(Cl)C(=O)C2c2ccccc2O)n1 (centres undefined) , which call appears in the assay record?
inactive

For CCCCOCCOCCOC1=CC(=O)c2c(O)ccc(O)c2C1=O , which call appears in the assay record?
inactive

For COC(=O)CC1C[C@H](C#N)N(C(=O)c2ccccc2)C[C@@H]1CC[N+](=O)[O-] (some centres undefined) , which call appears in the assay record?
inactive

For Nc1ccc(-c2nc3cc(F)ccc3s2)cc1Br , which call appears in the assay record?
inactive

For COc1ccc(C[N+](C)(C)N)cc1OC , which call appears in the assay record?
inactive

For O=C(NCCN1CCCC1)c1cn2c(ccc3sc4ccccc4c(=O)c32)n1 , which call appears in the assay record?
inactive
